test system: mice from the CFLP strain; experiment: spontaneous motor activity, motimeter of Animex type; assay type: in vivo; details: Mus musculus, po, 2 hours registration, Litchfield and Wilcoxon, limits between slashes, read-out: ED50 value (dose decreasing the spontaneous motor activity to half)
Please go through the items and note down their ED50.
Write the numeric value and append its unit.

Lookup: Would you kindly share the measured ED50 for COc1cc2c(cc1OC)C(c1ccc(N)c(C)c1)=NN=C(C)C2 ?
Found: 4.4 mg/kg

Lookup: Would you kindly share the measured ED50 for CCC1C(C)=NN=C(c2ccc(OC)c(OC)c2)c2cc(OC)c(OC)cc21 (stereo not shown) [Tofizopam, reference compound] ?
Found: 22 mg/kg

Lookup: Would you kindly share the measured ED50 for COc1cc2c(cc1OC)C(c1cccc(Cl)c1)=NN=C(C)C2 [reference compound] ?
Found: 6.2 mg/kg

Lookup: Would you kindly share the measured ED50 for COc1cc2c(cc1OC)C(c1ccc(N)cc1)=NN=C(C)C2 ?
Found: 3.2 mg/kg

Lookup: Would you kindly share the measured ED50 for CC1=NN=C(c2ccc(N)cc2)c2cc3c(cc2C1)OCO3 ?
Found: 48 mg/kg

Lookup: Would you kindly share the measured ED50 for COc1cc2c(cc1OC)C(c1cccc(N)c1)=NN=C(C)C2 ?
Found: 1.3 mg/kg

Lookup: Would you kindly share the measured ED50 for COc1cc2c(cc1OC)C(c1ccc(C)c(N)c1)=NN=C(C)C2 ?
Found: 9.7 mg/kg

----------
Please go through the items and note down their Relative activity.
tested on: mice; experiment: antiaggressive effect, "fighting behaviour" test; assay type: in vivo; settings: antiaggressive effect, p.o., tofizopam = 1.0
Kindly provide the number alone.

Lookup: Would you kindly share the measured Relative activity for COc1cc2c(cc1OC)C(c1cccc(Cl)c1)=NN=C(C)C2 [reference compound] ?
Found: 4.6

Lookup: Would you kindly share the measured Relative activity for COc1cc2c(cc1OC)C(c1cccc(N)c1)=NN=C(C)C2 ?
Found: 5.1

Lookup: Would you kindly share the measured Relative activity for COc1cc2c(cc1OC)C(c1ccc(N)cc1)=NN=C(C)C2 ?
Found: 7.9

Lookup: Would you kindly share the measured Relative activity for CCC1C(C)=NN=C(c2ccc(OC)c(OC)c2)c2cc(OC)c(OC)cc21 (centres unmarked) [Tofizopam, reference compound] ?
Found: 1.0

Lookup: Would you kindly share the measured Relative activity for COc1cc2c(cc1OC)C(c1ccc(C)c(N)c1)=NN=C(C)C2 ?
Found: 3.8

Lookup: Would you kindly share the measured Relative activity for COc1cc2c(cc1OC)C(C)C(C)=NN=C2c1ccc(N)cc1 (centres unmarked) ?
Found: 4.6

Lookup: Would you kindly share the measured Relative activity for COc1cc2c(cc1OC)C(c1ccc(N)c(Cl)c1)=NN=C(C)C2 ?
Found: 8.1

Lookup: Would you kindly share the measured Relative activity for COc1cc2c(cc1OC)C(c1ccc(N)c(C)c1)=NN=C(C)C2 ?
Found: 7.0
